study system: human CD28 (human, UniProt P10747 19-152, limits assumed)
Sequence (P10747 19-152 limits assumed): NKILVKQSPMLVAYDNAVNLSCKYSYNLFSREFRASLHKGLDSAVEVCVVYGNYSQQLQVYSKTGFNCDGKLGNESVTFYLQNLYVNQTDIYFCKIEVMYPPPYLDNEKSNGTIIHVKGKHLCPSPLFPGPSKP
assay remarks: Interaction with CTLA4, ICOS CD28; assay not detailed
reported endpoint: binding result

5A8 murine anti-PD-1 antibody (antibody, V domains shown, Purified hybridoma antibody; also called 5A8-mIgG1) VH: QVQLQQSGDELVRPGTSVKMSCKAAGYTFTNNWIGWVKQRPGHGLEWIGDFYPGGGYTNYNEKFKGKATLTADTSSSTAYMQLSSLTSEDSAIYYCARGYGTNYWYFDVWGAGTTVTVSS VL: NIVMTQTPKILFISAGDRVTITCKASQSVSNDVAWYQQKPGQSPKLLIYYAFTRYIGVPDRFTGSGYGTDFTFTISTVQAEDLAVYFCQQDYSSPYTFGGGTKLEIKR | no binding
6E1 murine anti-PD-1 antibody (antibody, V domains shown, Purified hybridoma antibody; also called 6E1-mIgG1) VH: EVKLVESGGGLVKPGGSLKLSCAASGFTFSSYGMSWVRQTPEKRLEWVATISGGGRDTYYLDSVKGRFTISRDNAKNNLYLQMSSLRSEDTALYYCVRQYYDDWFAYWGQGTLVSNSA VL: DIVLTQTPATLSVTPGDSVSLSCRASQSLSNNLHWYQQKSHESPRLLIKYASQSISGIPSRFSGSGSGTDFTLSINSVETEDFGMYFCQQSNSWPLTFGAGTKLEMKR | no binding
15H5 murine anti-PD-1 antibody (antibody, V domains shown, Purified hybridoma antibody; also called 15H5-mIgG1) VH: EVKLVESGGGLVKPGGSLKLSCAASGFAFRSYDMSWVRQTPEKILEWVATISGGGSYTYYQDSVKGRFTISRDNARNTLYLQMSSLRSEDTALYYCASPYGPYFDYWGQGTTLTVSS VL: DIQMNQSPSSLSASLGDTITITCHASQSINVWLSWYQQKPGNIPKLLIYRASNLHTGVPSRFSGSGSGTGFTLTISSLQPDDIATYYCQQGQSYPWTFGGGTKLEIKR | no binding

Values were extracted from patent US20170267762A1.
